# target.under.test: CRTH2 (Homo sapiens, UniProt Q9Y5Y4)
# Construct: endogenous in cells; host or cells: eosinophils in human whole blood
# test.method.notes: DPBS CD11b antagonist assay (CD11b expression in eosinophils challenged with 15R-Methyl-PGD2)
# Format: cell-based
# condition.info: polymorphonuclear cells in PBS with CaCl2/MgCl2; agonist 15R-Methyl-PGD2 10 nM; eosinophils gated by flow cytometry
measurement.kind: IC50

Value sought: IC50, system CRTH2 (Homo sapiens, UniProt Q9Y5Y4), item `CCN(c1ccccc1Cc1c2c(n(CC(=O)O)c1C)CC(C)(C)CC2=O)S(=O)(=O)c1ccc(C)cc1` . Result: 1 to 5 nM

Value sought: IC50, system CRTH2 (Homo sapiens, UniProt Q9Y5Y4), item `CCOC(=O)Cn1c(C)c(Cc2cccnc2S(=O)(=O)c2ccc(F)cc2F)c2c1CC(C)(C)CC2=O` . Result: 100 to 500 nM

Value sought: IC50, system CRTH2 (Homo sapiens, UniProt Q9Y5Y4), item `Cc1ccc(S(=O)(=O)Nc2ccccc2Cc2c3c(n(CC(=O)O)c2C)CC(C)(C)CC3=O)cc1` . Result: < 1 nM

Value sought: IC50, system CRTH2 (Homo sapiens, UniProt Q9Y5Y4), item `Cc1c(Cc2ccccc2NS(=O)(=O)c2ccc(O)cc2)c2c(n1CC(=O)O)CC(C)(C)CC2=O` . Result: < 1 nM

Value sought: IC50, system CRTH2 (Homo sapiens, UniProt Q9Y5Y4), item `Cc1c(Cc2ccccc2NS(=O)(=O)c2ccc(C(F)(F)F)cc2)c2c(n1CC(=O)O)CC(C)(C)CC2=O` . Result: < 1 nM

Value sought: IC50, system CRTH2 (Homo sapiens, UniProt Q9Y5Y4), item `Cc1c(Cc2ccccc2NS(=O)(=O)N2CCOCC2)c2c(n1CC(=O)O)CC(C)(C)CC2=O` . Result: 1 to 5 nM

Value sought: IC50, system CRTH2 (Homo sapiens, UniProt Q9Y5Y4), item `CCOC(=O)N1CCN(S(=O)(=O)c2ccc(Cc3c4c(n(CC(=O)O)c3C)CCOC4)cc2)CC1` . Result: 1 to 5 nM

Value sought: IC50, system CRTH2 (Homo sapiens, UniProt Q9Y5Y4), item `Cc1c(Cc2ccccc2S(=O)(=O)N2CCCC2)c2c(n1CC(=O)O)CCNC2=O` . Result: < 1 nM

Value sought: IC50, system CRTH2 (Homo sapiens, UniProt Q9Y5Y4), item `Cc1c(Cc2ccccc2S(=O)(=O)N2CCCC2)c2c(n1CC(=O)O)CC(C)(C)C/C2=N\OCc1ccccc1` . Result: 1 to 5 nM

Value sought: IC50, system CRTH2 (Homo sapiens, UniProt Q9Y5Y4), item `Cc1c(Cc2ccccc2NS(=O)(=O)c2ccc(F)cc2F)c2c(n1CC(=O)O)CC(C)(C)CC2=O` . Result: < 1 nM

----------
Measured IC50 of individual entries
# target.under.test: CRTH2 (Homo sapiens)
# Construct: endogenous in cells; host or cells: eosinophils in human whole blood
# Sequence (Q9Y5Y4 1-395): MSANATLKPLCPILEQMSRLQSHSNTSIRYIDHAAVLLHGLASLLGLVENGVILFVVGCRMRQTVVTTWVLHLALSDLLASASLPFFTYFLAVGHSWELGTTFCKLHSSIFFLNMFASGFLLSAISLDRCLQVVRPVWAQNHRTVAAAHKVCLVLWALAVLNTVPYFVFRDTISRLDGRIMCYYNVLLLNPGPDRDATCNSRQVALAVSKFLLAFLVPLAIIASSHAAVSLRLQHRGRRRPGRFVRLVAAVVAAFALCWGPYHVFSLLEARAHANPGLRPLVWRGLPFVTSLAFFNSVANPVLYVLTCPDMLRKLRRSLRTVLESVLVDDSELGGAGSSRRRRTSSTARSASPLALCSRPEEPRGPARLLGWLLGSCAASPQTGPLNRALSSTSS
# test.method.notes: Human whole blood CD11b antagonist assay (CD11b expression in eosinophils challenged with 15-R-methyl-PGD2)
# Type: cell-based
# condition.info: 37° C. 10 minutes preincubation, agonist 15R-Methyl-PGD2 10 nM, eosinophils gated by flow cytometry

Value sought: IC50, system CRTH2 (Homo sapiens), item `Cc1c(Sc2ccccc2NS(=O)(=O)c2ccccc2)c2c(n1CC(=O)O)CC(C)(C)CC2` . Result: 5 to 20 nM

Value sought: IC50, system CRTH2 (Homo sapiens), item `Cc1c(Cc2ccccc2S(=O)(=O)N2CCOCC2)c2c(n1CC(=O)O)CCNC2=O` . Result: 1 to 5 nM

----------
# target.under.test: CRTH2 (Homo sapiens, UniProt Q9Y5Y4)
# Construct: endogenous in cells; host or cells: eosinophils in human whole blood
# test.method.notes: Human whole blood CD11b antagonist assay (CD11b expression in eosinophils challenged with 15-R-methyl-PGD2)
# Type: cell-based
# condition.info: 37° C. 10 minutes preincubation, agonist 15R-Methyl-PGD2 10 nM, eosinophils gated by flow cytometry
measurement.kind: IC50

See these solved cases before continuing.
> print(dat)
                                 mol.smiles  measurement.kind          result
1  Cc1c(Cc2ccccc2N(C)S(=O)(=O)c2ccc(C(C)C)cc2)c2c(n1CC(=O)O)CC(C)(C)CC2=O              IC50  500 to 3000 nM
2  Cc1c(Cc2cccnc2S(=O)(=O)c2ccc(F)cc2)c2c(n1CC(=O)O)CC(C)(C)CC2=O              IC50      5 to 20 nM
3  Cc1c(Cc2cc3ccccc3n2S(=O)(=O)N2CCOCC2)c2c(n1CC(=O)O)CC(C)(C)CC2=O              IC50    20 to 100 nM

Now look at this entry.
Reported IC50 ( `CCOC(=O)Cn1c(C)c(Cc2cccnc2S(=O)(=O)c2ccc(C(F)(F)F)cc2)c2c1CC(C)(C)CC2=O` ) = 100 to 500 nM

----------
# target.under.test: CRTH2 (Homo sapiens, UniProt Q9Y5Y4)
# Construct: endogenous in cells; host or cells: eosinophils in human whole blood
# test.method.notes: DPBS CD11b antagonist assay (CD11b expression in eosinophils challenged with 15R-Methyl-PGD2)
# Type: cell-based
# condition.info: polymorphonuclear cells in PBS with CaCl2/MgCl2; agonist 15R-Methyl-PGD2 10 nM; eosinophils gated by flow cytometry
measurement.kind: IC50

> print(dat)
                                   molecule  measurement.kind         result
1  Cc1c(Cc2ccccc2N(C)S(=O)(=O)c2ccccc2)c2c(n1CC(=O)O)CC(C)(C)CC2=O              IC50      1 to 5 nM
2  Cc1c(Cc2cccnc2S(=O)(=O)C2CC2)c2c(n1CC(=O)O)CC(C)(C)CC2=O              IC50  100 to 500 nM

Reported IC50 ( `Cc1c(Cc2cccc(N(C)S(=O)(=O)N3CCCC3)c2)c2c(n1CC(=O)O)CC(C)(C)CC2=O` ) = 100 to 500 nM

Reported IC50 ( `Cc1c(Cc2ccccc2N(C)S(=O)(=O)c2ccc(C(C)C)cc2)c2c(n1CC(=O)O)CC(C)(C)CC2=O` ) = 5 to 20 nM

Reported IC50 ( `Cc1c(Sc2ccccc2NS(=O)(=O)c2ccccc2)c2c(n1CC(=O)O)CC(C)(C)CC2` ) = < 1 nM

Reported IC50 ( `COc1ccc(S(=O)(=O)c2ncccc2Cc2c3c(n(CC(=O)O)c2C)CC(C)(C)CC3=O)cc1F` ) = < 1 nM

Reported IC50 ( `Cc1c(Cc2cc(OCC(F)(F)F)ccc2NS(=O)(=O)c2ccccc2)c2c(n1CC(=O)O)CC(C)(C)CC2=O` ) = 1 to 5 nM

Reported IC50 ( Cc1c(Cc2ccccc2NS(=O)(=O)N2CCCC2)c2c(n1CC(=O)O)CC(C)(C)CC2=O [Compound I-47] ) = 5 to 20 nM

Reported IC50 ( `Cc1c(Cc2ccccc2NS(=O)(=O)c2ccc(OCc3ccccc3)cc2)c2c(n1CC(=O)O)CC(C)(C)CC2=O` ) = < 1 nM

Reported IC50 ( `Cc1c(Cc2ccc(S(=O)(=O)c3ccccc3)s2)c2c(n1CC(=O)O)CC(C)(C)CC2=O` ) = 100 to 500 nM

Reported IC50 ( `Cc1c(Cc2cccnc2S(=O)(=O)c2ccc(Cl)cc2)c2c(n1CC(=O)O)CC(C)(C)CC2=O` ) = < 1 nM

Reported IC50 ( `Cc1c(Cc2ccccc2NS(=O)(=O)c2ccc(C(C)C)cc2)c2c(n1CC(=O)O)CC(C)(C)CC2=O` ) = < 1 nM

----------
# target.under.test: CRTH2 (Homo sapiens, UniProt Q9Y5Y4)
# Construct: endogenous in cells; host or cells: eosinophils in human whole blood
# Sequence (Q9Y5Y4 1-395): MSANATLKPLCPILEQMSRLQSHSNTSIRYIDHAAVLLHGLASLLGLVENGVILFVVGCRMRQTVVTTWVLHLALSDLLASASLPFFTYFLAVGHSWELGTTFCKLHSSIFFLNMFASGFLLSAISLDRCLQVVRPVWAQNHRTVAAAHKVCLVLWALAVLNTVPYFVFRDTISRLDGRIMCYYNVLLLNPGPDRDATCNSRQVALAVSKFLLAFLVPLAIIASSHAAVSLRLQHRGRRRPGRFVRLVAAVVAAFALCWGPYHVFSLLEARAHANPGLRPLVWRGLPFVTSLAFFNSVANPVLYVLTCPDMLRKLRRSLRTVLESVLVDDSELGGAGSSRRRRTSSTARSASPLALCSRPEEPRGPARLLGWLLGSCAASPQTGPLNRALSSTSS
# test.method.notes: DPBS CD11b antagonist assay (CD11b expression in eosinophils challenged with 15R-Methyl-PGD2)
# Type: cell-based
# condition.info: polymorphonuclear cells in PBS with CaCl2/MgCl2; agonist 15R-Methyl-PGD2 10 nM; eosinophils gated by flow cytometry
Measured IC50 of individual entries

See these solved cases before continuing.
> print(dat)
                                   molecule  measurement.kind         result
1  Cc1c(Cc2sccc2S(=O)(=O)c2ccccc2)c2c(n1CC(=O)O)CC(C)(C)CC2=O [Compound I-42]              IC50         < 1 nM
2  CCOC(=O)Cn1c(C)c(Cc2cccnc2S(=O)(=O)c2ccccc2)c2c1CC(C)(C)CC2=O [Compound I-9]              IC50  100 to 500 nM
3  Cc1c(Cc2ccccc2S(=O)(=O)N2CCOCC2)c2c(n1CC(=O)O)CCNC2=O [Compound I-50]              IC50         < 1 nM
4  Cc1c(Cc2ccccc2NS(=O)(=O)N2CCCC2)c2c(n1CC(=O)O)CC(C)(C)CC2=O [Compound I-40]              IC50      1 to 5 nM
5  CCOC(=O)Cn1c(C)c(Cc2cccnc2S(=O)(=O)c2ccc(Cl)cc2)c2c1CC(C)(C)CC2=O [Compound I-14]              IC50  100 to 500 nM
6  Cc1ccc(S(=O)(=O)c2ncccc2Cc2c3c(n(CC(=O)O)c2C)CC(C)(C)CC3=O)cc1 [Compound I-20]              IC50         < 1 nM
7  Cc1ccc(S(=O)(=O)N(C)c2ccccc2Cc2c3c(n(CC(=O)O)c2C)CC(C)(C)CC3=O)cc1 [Compound I-33]              IC50      1 to 5 nM
8  Cc1c(Cc2cc3ccccc3n2S(=O)(=O)c2ccccc2)c2c(n1CC(=O)O)CCC(C)(C)C2 [Compound I-1]              IC50         < 1 nM

Reported IC50 ( Cc1c(Cc2cccnc2S(=O)(=O)c2ccccc2)c2c(n1CC(=O)O)CC(C)(C)CC2=O [Compound I-3] ) = < 1 nM

Reported IC50 ( CCOC(=O)Cn1c(C)c(Cc2cccnc2S(=O)(=O)c2ccc(OC)cc2)c2c1CC(C)(C)CC2=O [Compound I-6] ) = 5 to 20 nM
